- System: Staphylococcus aureus
- Assay details: Antibacterial activity against Staphylococcus aureus assessed as bacterial growth inhibition
- Type: functional
Residues, ends and D or L forms follow the SMILES beside them. *: point of attachment. Octanoyl = CCCCCCCC(=O)*

{"Compound": "CCCCCCCC(=O)NCC(=O)N[C@H](C(=O)N[C@H](C(=O)N[C@@H](CCCCN)C(=O)N[C@@H](CCCCN)C(=O)N[C@H](C(=O)N[C@H](C(=O)N[C@@H](CCCCN)C(=O)N[C@@H](CCCCN)C(=O)N[C@H](C(=O)N[C@H](C(=O)N[C@@H](CCCCN)C(=O)N[C@@H](CCCCN)C(=O)N[C@H](C(N)=O)[C@@H](C)CC)[C@@H](C)CC)[C@@H](C)CC)[C@@H](C)CC)[C@@H](C)CC)[C@@H](C)CC)[C@@H](C)CC (Octanoyl-GIIKKIIKKIIKKI-NH2)", "MIC / µM": 4}

---

- System: Cell membrane
- Assay details: Induction of outer membrane permeabilization in Pseudomonas aeruginosa PAO1 assessed as increase in NPN uptake at 8 to 32 uM by NPN-dye based fluorescence analysis
- Experimental context: dose 8-32 µM
Active and inactive are the calls of the source. The rule behind the calls is not given here. Residues, ends and D or L forms follow the SMILES beside them. *: point of attachment. βGal = OC[C@H]1O[C@@H](*)[C@H](O)[C@@H](O)[C@H]1O; Octanoyl = CCCCCCCC(=O)*

{"Compound": "CC[C@H](C)[C@H](NC(=O)CN)C(=O)N[C@H](C(=O)N[C@@H](CCCCN)C(=O)N[C@@H](CCCCN)C(=O)N[C@H](C(=O)N[C@H](C(=O)N[C@@H](CCCCN)C(=O)N[C@@H](CCCCN)C(=O)N[C@H](C(=O)N[C@H](C(=O)N[C@@H](CCCCN)C(=O)N[C@@H](CCCCN)C(=O)N[C@H](C(=O)N[C@@H](CO[C@@H]1O[C@H](CO)[C@H](O)[C@H](O)[C@H]1O)C(N)=O)[C@@H](C)CC)[C@@H](C)CC)[C@@H](C)CC)[C@@H](C)CC)[C@@H](C)CC)[C@@H](C)CC (H-GIIKKIIKKIIKKIS(βGal)-NH2)", "Activity": "Active"}
{"Compound": "CCCCCCCC(=O)NCC(=O)N[C@H](C(=O)N[C@H](C(=O)N[C@@H](CCCCN)C(=O)N[C@@H](CCCCN)C(=O)N[C@H](C(=O)N[C@H](C(=O)N[C@@H](CCCCN)C(=O)N[C@@H](CCCCN)C(=O)N[C@H](C(=O)N[C@@H](CO[C@@H]1O[C@H](CO)[C@H](O)[C@H](O)[C@H]1O)C(N)=O)[C@@H](C)CC)[C@@H](C)CC)[C@@H](C)CC)[C@@H](C)CC)[C@@H](C)CC (Octanoyl-GIIKKIIKKIS(βGal)-NH2)", "Activity": "Active"}

---

- System: Cell membrane
- Assay details: Induction of outer membrane permeabilization in Pseudomonas aeruginosa PAO1 assessed as increase in NPN uptake at 8 to 32 uM by NPN-dye based fluorescence analysis
- Experimental context: dose 8-32 µM
Active and inactive are the calls of the source. The calls are words filed in the database; no cut-off is given here. Residues, ends and D or L forms follow the SMILES beside them. *: point of attachment. βGlc = OC[C@H]1O[C@@H](*)[C@H](O)[C@@H](O)[C@@H]1O; Octanoyl = CCCCCCCC(=O)*

{"Molecule": "CC[C@H](C)[C@H](NC(=O)CN)C(=O)N[C@H](C(=O)N[C@@H](CCCCN)C(=O)N[C@@H](CCCCN)C(=O)N[C@H](C(=O)N[C@H](C(=O)N[C@@H](CCCCN)C(=O)N[C@@H](CCCCN)C(=O)N[C@H](C(=O)N[C@H](C(=O)N[C@@H](CCCCN)C(=O)N[C@@H](CCCCN)C(=O)N[C@H](C(=O)N[C@@H](CO[C@@H]1O[C@H](CO)[C@@H](O)[C@H](O)[C@H]1O)C(N)=O)[C@@H](C)CC)[C@@H](C)CC)[C@@H](C)CC)[C@@H](C)CC)[C@@H](C)CC)[C@@H](C)CC (H-GIIKKIIKKIIKKIS(βGlc)-NH2)", "Activity": "Active"}
{"Molecule": "CCCCCCCC(=O)NCC(=O)N[C@H](C(=O)N[C@H](C(=O)N[C@@H](CCCCN)C(=O)N[C@@H](CCCCN)C(=O)N[C@H](C(=O)N[C@H](C(=O)N[C@@H](CCCCN)C(=O)N[C@@H](CCCCN)C(=O)N[C@H](C(=O)N[C@H](C(=O)N[C@@H](CCCCN)C(=O)N[C@@H](CCCCN)C(=O)N[C@H](C(N)=O)[C@@H](C)CC)[C@@H](C)CC)[C@@H](C)CC)[C@@H](C)CC)[C@@H](C)CC)[C@@H](C)CC)[C@@H](C)CC (Octanoyl-GIIKKIIKKIIKKI-NH2)", "Activity": "Active"}
